Ref: patent US12618050B2

Assay: Protein expression levels of GDH variants
Parameters: species or system Escherichia coli
Details: expressed in E. coli
For each record, write down the corresponding Expression level.
Give bare numbers, in μg protein/ml culture.

Molecule	Measured Value
I195R: Bs GDH, same sequence as SEQ ID NO:1 except I195R (SEQ ID NO:2) (protein, I195R mutant GDH coding sequence) MYPDLKGKVVAITGAASGLGKAMAIRFGKEQAKVVINYYSNKQDPNEVKEEVIKAGGEAVVVQGDVTKEEDVKNIVQTAIKEFGTLDIMINNAGLENPVPSHEMPLKDWDKVIGTNLTGAFLGSREAIKYFVENDIKGNVINMSSVHEVIPWPLFVHYAASKGGIKLMTETLALEYAPKGIRVNNIGPGAINTPRNAEKFADPKQKADVESMIPMGYIGEPEEIAAVAAWLASKEASYVTGITLFADGGMTQYPSFQAGRG	108.83

We next turn to a different molecule, shown below.
Name the recorded Expression level for N92A (protein) MYPDLKGKVVAITGAASGLGKAMAIRFGKEQAKVVINYYSNKQDPNEVKEEVIKAGGEAVVVQGDVTKEEDVKNIVQTAIKEFGTLDIMINAAGLENPVPSHEMPLKDWDKVIGTNLTGAFLGSREAIKYFVENDIKGNVINMSSVHEVIPWPLFVHYAASKGGIKLMTETLALEYAPKGIRVNNIGPGAINTPINAEKFADPKQKADVESMIPMGYIGEPEEIAAVAAWLASKEASYVTGITLFADGGMTQYPSFQAGRG .
81.16
